Below: compounds with Ki recorded for Estrogen receptor beta (Homo sapiens, UniProt Q92731) in separate published works.
result.type: Ki (µM)

[P] COc1ccccc1OS(=O)(=O)C1CC2OC1C(c1ccc(NC(=O)CCCCCCC(=O)O)cc1)=C2c1ccc(O)cc1 (racemic)
[Q] C=CCN1CCN(c2nc(NCCc3ccc(O)cc3)nc(N(C)CCCc3ccc(Cl)cc3)n2)CC1
Would you kindly point out which of P and Q has the smaller Ki figure? // caller expects the label of the chosen entry
Q
(Q: 0.03 µM, P: 0.0952 µM)

[I] Oc1ccc(-c2nn3c(C(F)(F)F)cc(C(F)(F)F)nc3c2-c2ccccc2)cc1
[II] C[C@]12CCc3c(sc4cc(O)ccc34)[C@H]1CC[C@@H]2O
[III] Oc1ccc2c(c1)CCC(c1ccccc1)N2Cc1ccc(OCCN2CCCCC2)cc1 (stereo unspecified)
Sort (3 compounds) by Ki: min first. Provide your answer as the labels ordered per the instruction.
III, II, I

* * *

pKi: −log10 of the molar value.
Below: compounds with pKi recorded for Estrogen receptor beta (Homo sapiens, UniProt Q92731) in separate published works.
result.type: pKi

# count of solved cases: 7
Which pKi value belongs to C#C[C@]1(O)CC[C@H]2[C@@H]3CCC4=CC(=O)CCC4=C3[C@@H](c3ccc(N(C)CCOCCO[C@H]4CC[C@@]5(C)[C@@H](C4)C[C@@H](O)[C@@H]4[C@@H]5C[C@H](O)[C@]5(C)[C@@H]([C@H](C)CCC(=O)O)CC[C@@H]45)cc3)C[C@@]21C ?
7.29

Same question, CN(C)CCOc1ccc(-c2c(-c3ccc(O)cc3)nn3c(C(F)(F)F)cc(C(F)(F)F)nc23)cc1 this time
6.75

Same question, CCCCCCCCc1cc2cc(O)ccc2c(Oc2ccc(/C=C/C(=O)O)cc2)c1-c1ccccc1 this time
7.52

Same question, CCNc1c(/C=N/O)ccc(-c2ccccc2)c1-c1ccccc1 this time
10.32

Same question, Oc1ccc(-c2ccc3cc(O)ccc3n2)cc1 this time
7.46

Same question, Nc1c(/C=N/O)ccc(-c2ccccc2)c1-c1ccccc1 this time
8.55

Same question, CN(CCCc1ccc(Cl)cc1)c1nc(NCCc2ccc(O)cc2)nc(N2CCN(CC(=O)C(C)(C)C)CC2)n1 this time
6.68

[P] CN1CCN(c2nc(NCCc3ccc(O)cc3)nc(OCCCc3ccccc3)n2)CC1
[Q] CN(CCCc1ccc(Cl)cc1)c1nc(NCCc2ccc(O)cc2)nc(N2C[C@@H]3C[C@H]2CN3)n1
Lab note: check whether P or Q shows the higher recorded pKi. // caller expects the label of the chosen entry
Q
(Q: 6.98, P: 6.00)

* * *

Below: molecules with pKi recorded for Estrogen receptor beta (Homo sapiens) in separate published works.
pKi: −log10 of the molar value.
result.type: pKi

[I] CCC1=C(c2ccc(O)cc2)C(C(=O)Nc2ccc(OCCN3CCCCC3)cc2)c2cc(O)ccc21 (stereo unspecified)
[II] CN1CCN(c2nc(NCCCc3ccccc3)nc(NCCc3ccc(O)cc3)n2)CC1
Lab note: check whether I or II shows the higher recorded pKi. // caller expects the label of the chosen entry
I

[I] C[C@]12CCc3c(sc4cc(O)ccc34)[C@@H]1CC[C@@H]2O
[II] CN(CCCc1ccc(Cl)cc1)c1nc(NCCc2ccc(O)cc2)nc(N2CCN(S(=O)(=O)/C=C/c3ccccc3)CC2)n1
Lab note: check whether I or II shows the higher recorded pKi. // caller expects the label of the chosen entry
I
(I: 7.96, II: 6.65)

[I] O/N=C/c1c(O)ccc(-c2ccc(O)c(F)c2)c1Cl
[II] Oc1ccc(C2=C(c3ccc(O)cc3)c3ccc(O)cc3C2)cc1
[III] Cc1ccccc1OS(=O)(=O)C1CC2OC1C(c1ccc(NC(=O)CCCCCCC(=O)NO)cc1)=C2c1ccc(O)cc1 (racemic)
[IV] CN(CCCc1ccc(Cl)cc1)c1nc(NCCc2ccc(O)cc2)nc(N2CCN(C(=O)Nc3ccc(Cl)cc3)CC2)n1
[V] CCCCc1ccc(-c2sc3cc(O)ccc3c2C(=O)c2ccc(OCCN3CCCCC3)cc2)cc1
Sort (5 molecules) by pKi: min first. Provide your answer as the labels ordered per the instruction.
III, IV, V, II, I

* * *

Below: compounds with pKi recorded for Estrogen receptor beta (Homo sapiens) in separate published works.
pKi: −log10 of the molar value.
result.type: pKi

Which pKi value belongs to CC(C)CNc1cc(NCC(C)C)nc(NCC(C)C)n1 ?
3.52

[1] O=C(CCCCCCC(=O)Nc1ccc(OS(=O)(=O)C2CC3OC2C(c2ccc(O)cc2)=C3c2ccc(O)cc2)cc1)NO (configuration not stated)
[2] CN(CCCC1CCCCC1)c1nc(NCCc2ccc(O)cc2)nc(N2CCNCC2)n1
Would you kindly point out which of 1 and 2 has the smaller pKi figure? // caller expects the label of the chosen entry
2

* * *

Below: molecules with Ki recorded for Estrogen receptor beta (Homo sapiens) in separate published works.

Which Ki value belongs to CC(C)COc1cc(/C=C/c2ccccc2)nc(OCC(C)C)n1 ?
> 1000 µM

Same question, C#C[C@]1(O)CC[C@H]2[C@@H]3CCC4=CC(=O)CCC4=C3[C@@H](c3ccc(N(C)CCCOC4CC[C@@]5(C)[C@@H](C4)C[C@@H](O)[C@@H]4[C@@H]5C[C@H](O)[C@]5(C)[C@@H]([C@H](C)CCC(=O)O)CC[C@@H]45)cc3)C[C@@]21C (stereo partly specified) this time
0.013 µM

Same question, c1ccc(CCc2cc(CCc3ccccc3)nc(NCc3ccccc3)n2)cc1 this time
> 1000 µM

Same question, C#C[C@]1(O)CC[C@H]2[C@@H]3CCC4=CC(=O)CCC4=C3[C@@H](c3ccc(N(C)C(=O)CNC(=O)OC4CC[C@@]5(C)[C@@H](C4)C[C@@H](O)[C@@H]4[C@@H]5C[C@H](O)[C@]5(C)[C@@H]([C@H](C)CCC(=O)O)CC[C@@H]45)cc3)C[C@@]21C (stereo partly specified) this time
0.16 µM

Same question, CC(C)CCc1nc(NCc2ccccc2)cc(NCC(C)C)n1 this time
> 1000 µM

New cases:
Which Ki value belongs to CC(C)(C)OC(=O)N(Cc1ccccc1)c1cc(CCc2cccc3ccccc23)nc(NCc2cccc3ccccc23)n1 ?
> 1000 µM

Same question, CC(C)(C)OC(=O)N(Cc1cccc2ccccc12)c1cc(CCc2ccccc2)nc(NCc2cccc3ccccc23)n1 this time
> 1000 µM

Same question, O=C(CCCCCCC(=O)Nc1ccc(C2=C(c3ccc(O)cc3)C3CC(S(=O)(=O)Oc4ccc5ccccc5c4)C2O3)cc1)NO (stereo unspecified) this time
0.102 µM

Same question, CC(C)CCc1cc(NCc2cccc3ccccc23)nc(NCc2cccc3ccccc23)n1 this time
> 1000 µM

Same question, CC(C)CNc1nc(CCc2ccccc2)cc(CCc2ccccc2)n1 this time
> 1000 µM

Same question, CC(C)CCc1nc(NCc2cccc3ccccc23)cc(NCC(C)C)n1 this time
> 1000 µM

* * *

pKi: −log10 of the molar value.
Below: compounds with pKi recorded for Estrogen receptor beta (Homo sapiens) in separate published works.

Which pKi value belongs to c1ccc(CNc2nc(CCc3cccc4ccccc34)cc(NCc3cccc4ccccc34)n2)cc1 ?
< 3.00

Same question, CC(C)CNc1nc(CCc2cccc3ccccc23)cc(N(Cc2ccccc2)C(=O)OC(C)(C)C)n1 this time
< 3.00

Same question, CC(C)CNc1cc(SCC(C)C)nc(NCC(C)C)n1 this time
< 3.00

New cases:
Which pKi value belongs to CN1CCN(c2nc(NCCCc3ccccc3)nc(N3CCc4cc(O)ccc4C3)n2)CC1 ?
< 5.00

Same question, CC(C)CNc1nc(CCc2cccc3ccccc23)cc(NCc2ccccc2)n1 this time
< 3.00

Same question, C#C[C@]1(O)CC[C@H]2[C@@H]3CCC4=CC(=O)CCC4=C3[C@@H](c3ccc(N(C)C(=O)CNC(=O)O[C@@H]4C[C@@H]5CC(O)CC[C@]5(C)[C@H]5C[C@H](O)[C@]6(C)[C@@H]([C@H](C)CCC(=O)O)CC[C@H]6[C@H]45)cc3)C[C@@]21C (some centres not stated) this time
< 6.12

Same question, CC(C)(C)OC(=O)N(Cc1cccc2ccccc12)c1cc(/C=C/c2ccccc2)nc(NCc2cccc3ccccc23)n1 this time
< 3.00

* * *

Below: compounds with Ki recorded for Estrogen receptor beta (Homo sapiens, UniProt Q92731) in separate published works.

# count of solved cases: 10
Which Ki value belongs to Oc1ccc(C2=C(c3ccc(F)cc3)c3ccc(O)cc3C2)cc1 ?
2.8e-06 mM

Same question, CCN(CC)C(=O)N1CCN(c2nc(NCCc3ccc(O)cc3)nc(N(C)CCCc3ccc(Cl)cc3)n2)CC1 this time
0.00079 mM

Same question, O=C(O)CCCCCCC(=O)Nc1ccc(C2=C(c3ccc(O)cc3)C3CC(S(=O)(=O)Oc4ccc(Cl)cc4)C2O3)cc1 (racemic) this time
0.0002 mM

Same question, Oc1cccc(C2CCc3cc(O)ccc3N2Cc2ccc(OCCN3CCCCC3)cc2)c1 (configuration not stated) this time
5.5e-06 mM

Same question, Oc1ccc(-c2c(-c3ccc(OCCN4CCCCC4)cc3)nn3c(C(F)(F)F)cc(C(F)(F)F)nc23)cc1 this time
0.000192 mM

Same question, CC(C)CNc1nc(CCc2cccc3ccccc23)cc(N(C)CC(C)C)n1 this time
> 1 mM

Same question, c1ccc(CCc2cc(NCc3ccccc3)nc(NCc3cccc4ccccc34)n2)cc1 this time
> 1 mM

Same question, CC(C)CCc1cc(SCc2ccccc2)nc(SCc2ccccc2)n1 this time
> 1 mM

Same question, c1ccc(CCc2cc(NCc3ccccc3)nc(NCc3ccccc3)n2)cc1 this time
> 1 mM

Same question, CC(C)CNc1nc(CCc2ccccc2)cc(N(Cc2ccccc2)C(=O)OC(C)(C)C)n1 this time
> 1 mM

New cases:
Which Ki value belongs to O=C(c1ccc(OCCN2CCCCC2)cc1)N1c2ccc(O)cc2CCC1c1ccc(O)cc1 (configuration not stated) ?
> 0.001 mM

Same question, CC(C)CNc1nc(CCc2cccc3ccccc23)cc(N(CC(C)C)C(=O)OC(C)(C)C)n1 this time
> 1 mM

Same question, CC(C)CNc1cc(CCc2cccc3ccccc23)nc(NCc2ccccc2)n1 this time
> 1 mM

Same question, c1ccc(CCc2cc(NCc3cccc4ccccc34)nc(NCc3ccccc3)n2)cc1 this time
> 1 mM

Same question, CC(C)CCc1cc(N(Cc2cccc3ccccc23)C(=O)OC(C)(C)C)nc(NCc2ccccc2)n1 this time
> 1 mM

Same question, CC(C)CNc1nc(CCc2cccc3ccccc23)cc(NCc2cccc3ccccc23)n1 this time
> 1 mM

Same question, CC(C)CCc1cc(NCC(C)C)nc(OCC(C)C)n1 this time
> 1 mM

Same question, C#C[C@]1(O)CC[C@H]2[C@@H]3CCC4=CC(=O)CCC4=C3[C@@H](c3ccc(N(C)CCCS(=O)(=O)N(C)C4CC[C@@]5(C)[C@@H](C4)C[C@@H](O)[C@@H]4[C@@H]5C[C@H](O)[C@]5(C)[C@@H]([C@H](C)CCC(=O)O)CC[C@@H]45)cc3)C[C@@]21C (some centres not stated) this time
3.9e-05 mM

Same question, CCc1cc(NCC(C)C)nc(NCC(C)C)n1 this time
> 1 mM

Same question, CC(C)CNc1cc(OCC(C)C)nc(NCC(C)C)n1 this time
> 1 mM

Same question, CC(C)CNc1nc(CCc2ccccc2)cc(N(C)CC(C)C)n1 this time
> 1 mM

Same question, CC(C)CCc1cc(S(=O)(=O)Cc2ccccc2)nc(S(=O)(=O)Cc2ccccc2)n1 this time
> 1 mM

Same question, CC(C)CCc1cc(NCC(C)C)nc(NCC(C)C)n1 this time
> 1 mM

Same question, C#C[C@]1(O)CC[C@H]2[C@@H]3CCC4=CC(=O)CCC4=C3[C@@H](c3ccc(N(C)CCCC(=O)N(C)C4CC[C@@]5(C)[C@@H](C4)C[C@@H](O)[C@@H]4[C@@H]5C[C@H](O)[C@]5(C)[C@@H]([C@H](C)CCC(=O)O)CC[C@@H]45)cc3)C[C@@]21C (some centres not stated) this time
1.3e-05 mM
